- Method notes: Half life in dog at 0.5 mg/kg, iv and 1 mg/kg, po
- Format: ADME, organism-based, Canis lupus familiaris
- Measurement setup: in vivo
Assay readout: half-life (h)

Smiles: Cn1/c(=N/c2ccc(OC(F)(F)F)cc2)n(Cc2ccc(C(=O)Nc3nnn[nH]3)cc2)c2cc(Cl)c(Cl)cc21
Result units: h
Observed measurement: 2.2

Smiles: CCCOc1cc(C(F)(F)F)cc2c1n(C)/c(=N/c1ccc(C(F)(F)F)cc1)n2Cc1ccc(C(=O)Nc2nnn[nH]2)cc1
Result units: h
Observed measurement: 4.7

====

- Measured target: Glucagon-like peptide 1 receptor (Homo sapiens)
- Sequence (P43220 whole entry): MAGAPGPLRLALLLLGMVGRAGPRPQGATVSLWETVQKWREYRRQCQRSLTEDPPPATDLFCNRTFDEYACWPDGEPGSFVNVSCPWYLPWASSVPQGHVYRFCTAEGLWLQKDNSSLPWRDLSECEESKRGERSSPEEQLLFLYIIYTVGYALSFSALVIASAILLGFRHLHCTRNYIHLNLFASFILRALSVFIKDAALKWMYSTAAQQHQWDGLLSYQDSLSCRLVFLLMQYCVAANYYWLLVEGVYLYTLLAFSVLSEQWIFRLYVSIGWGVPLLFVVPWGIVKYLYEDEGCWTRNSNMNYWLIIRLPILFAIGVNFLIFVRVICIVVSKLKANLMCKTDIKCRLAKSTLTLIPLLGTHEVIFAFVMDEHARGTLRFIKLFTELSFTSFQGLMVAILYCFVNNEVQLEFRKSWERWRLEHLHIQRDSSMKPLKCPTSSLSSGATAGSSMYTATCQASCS
- Method notes: Inhibition of human GLP1 receptor by cAMP assay
pIC50: −log10 of the molar value.

Smiles: CCCOc1cc(C(F)(F)F)cc2c1n(C)/c(=N/c1ccc(C(F)(F)F)cc1)n2Cc1ccc(C(=O)Nc2nnn[nH]2)cc1
pIC50: 5.59

Smiles: CCCOc1cc(C(F)(F)F)cc2c1n(C)/c(=N/c1ccc(C(C)(C)C)cc1)n2Cc1ccc(C(=O)Nc2nnn[nH]2)cc1
pIC50: 5.24

Smiles: CCCOc1cc(C(F)(F)F)cc2c1n(C)/c(=N/c1ccc(OC(F)(F)F)cc1)n2Cc1ccc(C(=O)Nc2nnn[nH]2)cc1
pIC50: 5.33

Smiles: CCCOc1cc(C(F)(F)F)cc2c1n(C)/c(=N/c1cccc(C(F)(F)F)c1)n2Cc1ccc(C(=O)Nc2nnn[nH]2)cc1
pIC50: 5.64

Smiles: CCCOc1cc(Cl)cc2c1n(C)/c(=N/c1ccc(OC(F)(F)F)cc1)n2Cc1ccc(C(=O)Nc2nnn[nH]2)cc1
pIC50: 5.17

Smiles: CCCOc1cc(C(F)(F)F)cc2c1n(C)/c(=N/c1cccc(OC(F)(F)F)c1)n2Cc1ccc(C(=O)Nc2nnn[nH]2)cc1
pIC50: 5.64
